# tested.on: human C5aR(CD88) (Homo sapiens)
# Construct: expressed in transfected cells; host or cells: rat basophilic leukemia cells (RBL)
# Sequence (P21730 whole entry): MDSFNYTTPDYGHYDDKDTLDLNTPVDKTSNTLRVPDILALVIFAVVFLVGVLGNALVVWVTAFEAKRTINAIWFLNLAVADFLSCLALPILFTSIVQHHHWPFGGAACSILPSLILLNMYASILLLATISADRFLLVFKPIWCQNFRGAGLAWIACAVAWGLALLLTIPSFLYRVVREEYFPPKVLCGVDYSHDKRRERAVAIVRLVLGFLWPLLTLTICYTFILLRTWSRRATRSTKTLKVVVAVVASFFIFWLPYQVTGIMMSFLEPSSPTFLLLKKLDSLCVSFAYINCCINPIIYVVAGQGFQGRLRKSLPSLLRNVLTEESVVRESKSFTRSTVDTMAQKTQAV
# assay.text: Determination of the IC50 value in an enzyme release assay (functional assay, antagonistic activity)
# Assay type: cell-based
# condition.description: antagonistic activity; IC50 group in enzyme release assay, RBL cells expressing human C5aR(CD88); read-out: activity (group)
Positions of bridges follow the written chain, without caps; N, C: chain ends. Non-standard residues stand in square brackets, D forms with d. Residues, ends and D or L forms follow the SMILES beside them. *: point of attachment. Phe(3,4-Cl2) = N[C@@H](Cc1ccc(Cl)c(Cl)c1)C(=O)O; Bta = N[C@@H](Cc1csc2ccccc12)C(=O)O; Hyp = O=C(O)[C@@H]1C[C@@H](O)CN1; d(hLeu) = CC(C)CC[C@@H](N)C(=O)O; 2Thi = N[C@@H](Cc1cccs1)C(=O)O; dCha = N[C@H](CC1CCCCC1)C(=O)O; Nle = CCCC[C@H](N)C(=O)O; Orn = NCCC[C@H](N)C(=O)O; Aze = O=C(O)[C@@H]1CCN1; βAla = NCCC(=O)O; tBu = CC(C)(C)*
readout: IC50

{"compound": "CC(=O)N[C@@H](Cc1ccccc1)C(=O)N[C@H]1CCCNC(=O)[C@H](Cc2ccc(O)cc2)NC(=O)[C@H](Cc2c[nH]c3ccccc23)NC(=O)[C@@H](CC2CCCCC2)NC(=O)[C@@H]2CCCN2C1=O [Compound 146, Ac-Phe-[Orn-Pro-cha-Trp-Tyr]] (Ac-F[Orn]P[dCha]WY; lactam 2-C)", "IC50": "20 to 50 nM"}
{"compound": "CC(=O)N[C@@H](Cc1cccs1)C(=O)N[C@@H](CCCN)C(=O)N1CCC[C@H]1C(=O)N[C@H](CC1CCCCC1)C(=O)N[C@@H](Cc1csc2ccccc12)C(=O)N[C@@H](Cc1ccccc1)C(N)=O [Compound 312, Ac-Thi-Orn-Pro-cha-Bta-Phe-NH2] (Ac-[2Thi][Orn]P[dCha][Bta]F-NH2)", "IC50": "20 to 50 nM"}
{"compound": "CCCC[C@@H]1NC(=O)[C@H](Cc2c[nH]c3ccccc23)NC(=O)[C@@H](CC2CCCCC2)NC(=O)[C@@H]2CCCN2C(=O)[C@@H](NC(=O)[C@H](Cc2ccccc2)NC(C)=O)CCCNC1=O [Compound 28, Ac-Phe-[Orn-Pro-cha-Trp-Nle]] (Ac-F[Orn]P[dCha]W[Nle]; lactam 2-C)", "IC50": "20 to 50 nM"}
{"compound": "CCCC[C@@H]1NC(=O)[C@H](Cc2c[nH]c3ccccc23)NC(=O)[C@@H](CCC(C)C)NC(=O)[C@@H]2C[C@@H](O)CN2C(=O)[C@@H](NC(=O)[C@H](Cc2ccccc2)NC(=O)CCN)CCCNC1=O [Compound 342, H-Bal-Phe-[Orn-Hyp-hle-Trp-Nle]] (H-[βAla]F[Orn][Hyp][d(hLeu)]W[Nle]; lactam 3-C)", "IC50": "50 to 200 nM"}
{"compound": "CC(=O)N[C@@H](Cc1ccccc1)C(=O)N[C@@H](CCCN)C(=O)N1CCC[C@H]1C(=O)N[C@H](CSC(C)(C)C)C(=O)N[C@@H](Cc1ccc(Cl)c(Cl)c1)C(=O)N[C@@H](Cc1ccccc1)C(N)=O [Compound 264, Ac-Phe-Orn-Pro-ctb-Eaa-Phe-NH2] (Ac-F[Orn]P[dC](tBu)[Phe(3,4-Cl2)]F-NH2)", "IC50": "20 to 50 nM"}

For reference, reported IC50 for CCCC[C@@H]1NC(=O)[C@H](Cc2c[nH]c3ccccc23)NC(=O)[C@@H](CC2CCCCC2)NC(=O)[C@@H]2CCN2C(=O)[C@@H](NC(=O)[C@H](Cc2ccccc2)NC(C)=O)CCCNC1=O [Compound 174, Ac-Phe-[Orn-Aze-cha-Trp-Nle]] (Ac-F[Orn][Aze][dCha]W[Nle]; lactam 2-C) stands at 50 to 200 nM

The recorded IC50 for entry CC(=O)N[C@@H](C)C(=O)N[C@@H](Cc1ccccc1)C(=O)N[C@@H](CCCN)C(=O)N1CC[C@H]1C(=O)N[C@H](CC1CCCCC1)C(=O)N[C@@H](Cc1csc2ccccc12)C(=O)N[C@@H](Cc1ccccc1)C(N)=O [Compound 151, Ac-Ala-Phe-Orn-Aze-cha-Bta-Phe-NH2] (Ac-AF[Orn][Aze][dCha][Bta]F-NH2) equals 20 to 50 nM
